Species on record: Rattus norvegicus
Experiment: Concentration required to cause 50% inhibition of spontaneous activity in rat portal vein
Type: functional
Conditions: Rattus norvegicus
Observation Type: IC50 (nM)
Record the value in nM, omitting the unit from your answer.

Molecule | Units Symbol | IC50
CC(C)(C)CN/C(=C\[N+](=O)[O-])NCc1cccnc1 | nM | 20000

# get_value(readout='IC50', item= CCC(C)(C)/N=C(\NC#N)Nc1cccnc1 )
2

# get_value(readout='IC50', item= CC1(C)CSC(Nc2cccnc2)=N1 )
31600

# get_value(readout='IC50', item= CC(C)(C)C1CSC(Nc2cccnc2)=N1 (configuration not stated) )
20000

# get_value(readout='IC50', item= CC(N/C(=C\[N+](=O)[O-])Nc1cccnc1)C(C)(C)C (configuration not stated) )
31.6

# get_value(readout='IC50', item= CC(C)(C)C/N=C(/NC#N)Nc1cccnc1 )
100

# get_value(readout='IC50', item= CCC(C)(C)/N=C(/S)Nc1cccnc1 )
200
